B1: ACBD3 (parent)
chain: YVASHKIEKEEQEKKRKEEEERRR

Variants of: B1
method_notes: protein stability index of a GFP-peptide fusion (GPS, HEK-293T) (PSI 1-6); higher = more stable;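 note: lentivirally expressed fusions sorted by FACS into six bins by GFP to DsRed ratio, PSI derived from sequencing read proportions per bin multiplied by bin number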
condition_notes: c terminus: a fixed tail appended
For each record, write down the corresponding protein stability index.

See these solved cases before continuing.
>>> print(df.to_string())
                construct_sequence  test_result
0   YVASAKIEKEEQEKKRKEEEERRR [H5A]          3.1
1  YVASHKIEKEEQEKKRKEEEERRP [R24P]         2.04
2  YVASHKIEKEEQEKKRKEEEERRV [R24V]         3.46
3  YVASHKIEKEDQEKKRKEEEERRR [E11D]         2.75
4  YVASHKIEKEEQEKKRKEEEEQRR [R22Q]         3.11
5   YVASHKHEKEEQEKKRKEEEERRR [I7H]          3.1

Please give protein stability index, item by item, for the list that follows.
1. YVASHKIEKEEQEKKRKEEEERYR [R23Y]
2. YVASHKIEYEEQEKKRKEEEERRR [K9Y]
3. YVASHKIEKEEQEKKRKEEEERHR [R23H]

Result block:
1. 2.64
2. 2.28
3. 2.29
